Data origin: patent US8178688B2

System: cells
assay_procedure: Cytotoxicity test (MTT)
Assay type: cell-based
condition_details: MC3T3-E1 cells, 10^−6M, 72 hrs, compared with the control group
measurement_type: Survival rates of the cells (%)
Give a bare numeral; the unit % is implied.

Study these solved cases before continuing.
smiles_text: CCS(=O)(=O)N(C)c1nc(-c2ccc(OCCCCCOc3ccc(C(=N)NO)cc3)cc2)cs1
Survival rates of the cells (%): 75.3

smiles_text: CCc1nc(-c2ccc(OCCCCCOc3ccc(C(=N)NO)cc3)cc2)c(CC2CCCC2)s1
Survival rates of the cells (%): 100.0

smiles_text: CNc1nc(-c2ccc(OCCCCCOc3ccc(C(=N)NO)cc3)cc2)c(C)s1
Survival rates of the cells (%): 100.0

smiles_text: CNc1nc(-c2ccc(OCCCCCOc3ccc(C(=N)NO)cc3)cc2)c(CC2CCCC2)s1
Survival rates of the cells (%): 65.7

Ask: Could you tell me which Survival rates of the cells is on file for Cc1nc(-c2ccc(OCCCN3CCN(CCCOc4ccc(C(=N)NO)cc4)CC3)cc2)c(C(C)C)s1 ?
Result: 99.5

Ask: Follow-up item: CCCCc1sc(C(C)C)nc1-c1ccc(OCCCCCOc2ccc(C(=N)NO)cc2)cc1
Result: 100.0

Ask: Follow-up item: CCc1sc(N(C)Cc2cccnc2)nc1-c1ccc(OCCCCCOc2ccc(C(=N)NO)cc2)cc1
Result: 43.9

Ask: Follow-up item: N=C(NO)c1ccc(OCCCCCOc2ccc(-c3csc(N)n3)cc2)cc1
Result: 52.1

Ask: Follow-up item: N=C(NO)c1ccc(OCCCCCOc2ccc(-c3nc(NC(=O)c4ccncc4)sc3CC3CCCC3)cc2)cc1
Result: 86.7

Ask: Follow-up item: CCN(CCO)c1nc(-c2ccc(OCCCCCOc3ccc(C(=N)NO)cc3)cc2)c(C)s1
Result: 100.0

Ask: Follow-up item: Cc1sc(N(C)Cc2ccccc2)nc1-c1ccc(OCCCCCOc2ccc(C(=N)NO)cc2)cc1
Result: 57.6

====

// reported inhibition at 1 µM per item
System: osteoclast differentiation
assay_procedure: Inhibitory effects on osteoclast differentiation (co-culture of bone marrow cells with osteoblast, TRAP staining)
Type: cell-based, mice
condition_details: Mus musculus, Osteoclast, 168 h; 1 m; co-culture of bone marrow cells and osteoblast, 7 days, TRAP-positive osteoclasts versus controls; read-out: % inhibitory activity on osteoclastogenesis
Experimental: The effect of benzamidine derivatives of the present invention on osteoclast proliferation and differentiation process was evaluated via co-culture with osteoblast. […] The bone marrow cells were suspended in 5 mL α-MEM medium (Gibco BRL Co.) containing sodium bicarbonate (2.0 g/L), streptomycin (100 mg/L) and penicillin ([…]). The harvested cells were centrifuged at 600×g for 5 mins to collect the whole quantity. […]
Give a bare numeral; the unit % is implied.

smiles_text: CCCCc1sc(NCC)nc1-c1ccc(OCCCCCOc2ccc(C(=N)NO)cc2)cc1
recorded_number: 0

smiles_text: CC(C)c1nc(-c2ccc(OCc3ccc(COc4ccc(C(=N)NO)cc4)cc3)cc2)c(CC2CCCC2)s1
recorded_number: 85.6

smiles_text: C=Cc1sc(N)nc1-c1ccc(OCCCCCOc2ccc(C(=N)NO)cc2)cc1
recorded_number: 97.5

# next compound below
Ask: Requested read-out inhibition at 1 µM, target or system osteoclast differentiation, entry N=C(NO)c1ccc(OCCCCCOc2ccc(-c3nc(N)sc3Cc3ccccc3)cc2)cc1
Result: 46

====

Test system: osteoclast differentiation
assay_procedure: Inhibitory effects on osteoclast differentiation (co-culture of bone marrow cells with osteoblast, TRAP staining)
Type: cell-based, mice
condition_details: Mus musculus, Osteoclast, 168 h; 1 m; co-culture of bone marrow cells and osteoblast, 7 days, TRAP-positive osteoclasts versus controls; read-out: % inhibitory activity on osteoclastogenesis
Please use the following inhibition at 1 µM ranges when assigning a class: zone 1 = under 60%, zone 2 = from 60% up to 90%, zone 3 = 90% and over

Before answering, review these 6 worked examples.
compound: CC(C)c1sc(NCc2cccnc2)nc1-c1ccc(OCCCCCOc2ccc(C(=N)NO)cc2)cc1
assigned_label: zone 1

compound: CC(C)c1sc(N(C)CCO)nc1-c1ccc(OCCCCCOc2ccc(C(=N)NO)cc2)cc1
assigned_label: zone 1

compound: Cc1nc(-c2ccc(OCc3cccc(COc4ccc(C(=N)NO)cc4)c3)cc2)c(C(C)C)s1
assigned_label: zone 1

compound: Cc1nc(-c2ccc(OCCCCCNc3ccc(C(=N)NO)cc3)cc2)c(C(C)C)s1
assigned_label: zone 3

compound: CN(Cc1cccnc1)c1nc(-c2ccc(OCCCCCOc3ccc(C(=N)NO)cc3)cc2)c(CC2CCCC2)s1
assigned_label: zone 2

compound: CCCCc1sc(N(CC)CC)nc1-c1ccc(OCCCCCOc2ccc(C(=N)NO)cc2)cc1
assigned_label: zone 3

Ask: Lab note: sort CCCCc1sc(N)nc1-c1ccc(OCCCCCOc2ccc(C(=N)NO)cc2)cc1 into the matching inhibition at 1 µM band.
Result: zone 1

Ask: Follow-up item: Cc1nc(-c2ccc(OCCC(C)(O)CCOc3ccc(C(=N)NO)cc3)cc2)c(C(C)C)s1 (stereo not drawn)
Result: zone 3

Ask: Follow-up item: CNc1nc(-c2ccc(OCCCCCOc3ccc(C(=N)NO)cc3)cc2)cs1
Result: zone 1

Ask: Follow-up item: Cc1sc(NC(=O)c2ccncc2)nc1-c1ccc(OCCCCCOc2ccc(C(=N)NO)cc2)cc1
Result: zone 3

Ask: Follow-up item: CCNc1nc(-c2ccc(OCCCCCOc3ccc(C(=N)NO)cc3)cc2)cs1
Result: zone 3

====

// reported inhibition at 1 µM per item
Tested on: osteoclast differentiation
assay_procedure: Inhibitory effects on osteoclast differentiation (co-culture of bone marrow cells with osteoblast, TRAP staining)
Type: cell-based, mice
condition_details: Mus musculus, Osteoclast, 168 h; 1 m; co-culture of bone marrow cells and osteoblast, 7 days, TRAP-positive osteoclasts versus controls; read-out: % inhibitory activity on osteoclastogenesis

Study these solved cases before continuing.
compound: Cc1nc(-c2ccc(OCCCN3CCN(CCCOc4ccc(C(=N)NO)cc4)CC3)cc2)c(C(C)C)s1 [Example 181]
inhibition at 1 µM: 54.1%
--
compound: CCCN(CCC)c1nc(-c2ccc(OCCCCCOc3ccc(C(=N)NO)cc3)cc2)c(CC)s1 [Example 138]
inhibition at 1 µM: 91%
--
compound: Cc1nc(-c2ccc(OCCCCCOc3ccc(C(=N)NO)c(O)c3)cc2)c(C(C)C)s1 [Example 188]
inhibition at 1 µM: 82.6%

Ask: Could you tell me which inhibition at 1 µM is on file for CCN(CC)c1nc(-c2ccc(OCCCCCOc3ccc(C(=N)NO)cc3)cc2)c(C(C)C)s1 [Example 162] ?
Result: 87.4%

Ask: Follow-up item: Cc1nc(-c2ccc(OCCCCCOc3ccc(C(=N)NO)cc3)cc2F)c(C(C)C)s1 [Example 191]
Result: 8.8%

Ask: Follow-up item: CC(C)c1sc(CN)nc1-c1ccc(OCCCCCOc2ccc(C(=N)NO)cc2)cc1 [Example 73]
Result: 54.2%

Ask: Follow-up item: CCc1sc(N(C)Cc2cccnc2)nc1-c1ccc(OCCCCOc2ccc(C(=N)NO)cc2)cc1 [Example 200]
Result: 38.7%

Ask: Follow-up item: CN(CCN1CCOCC1)c1nc(-c2ccc(OCCCCCOc3ccc(C(=N)NO)cc3)cc2)c(CC2CCCC2)s1 [Example 148]
Result: 90.1%

Ask: Follow-up item: N=C(NO)c1ccc(OCCCCCOc2ccc(-c3nc(N4CCOCC4)sc3CC3CCCC3)cc2)cc1 [Example 168]
Result: 87%

====

Tested on: cells
assay_procedure: Cytotoxicity test (MTT)
Assay type: cell-based
condition_details: ST2 cells, 10^−6M, 72 hrs, compared with the control group
Method: Cytotoxic effect of benzamidine derivatives was evaluated by the experiment described below. The test substance was diluted in appropriate solvent at 10^−2M concentration. […] Cells to be used in cytotoxitic test were plated on a 96-well microplate in a dose of 1×10^4 cell/100 μL per well and cultured for 72 hrs. […] Lastly, the absorbance of developed plates was measured at 540 nm.
measurement_type: Survival rates of the cells (%)
Give a bare numeral; the unit % is implied.

Study these solved cases before continuing.
smiles_text: CCc1sc(N(CC)CCO)nc1-c1ccc(OCCCCCOc2ccc(C(=N)NO)cc2)cc1
recorded_number: 37.2

smiles_text: CCCCc1sc(C2CCCCC2)nc1-c1ccc(OCCCCCOc2ccc(C(=N)NO)cc2)cc1
recorded_number: 56.3

smiles_text: CCCCc1sc(C(C)C)nc1-c1ccc(OCCCCCOc2ccc(C(=N)NO)cc2)cc1
recorded_number: 55.1

# next compound below
Ask: Requested read-out Survival rates of the cells, target or system cells, entry N=C(NO)c1ccc(OCCCCCOc2ccc(-c3nc(-c4cccnc4)sc3Cc3ccccc3)cc2)cc1
Result: 48.7
